test system: F1*sub RNA substrate (template-directed ligation); test: fraction ligated after 30 min (ligated reads / total reads); higher = more ligase activity; sequences stand for … in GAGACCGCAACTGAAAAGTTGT…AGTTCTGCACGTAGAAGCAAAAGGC; settings: 42 °C
endpointLabel: fraction ligated

Guide cases for fraction ligated, answers given:
TTCACTTGTCGTAAGACACTTTGGATGGGTT [3d506] | 0.0428
TATACTTGTCGTAAGACATTTGGATGGGTTA [3d923] | 0.0964
TATCACTTTCGTAAGACACTTTGGATGGTTGA [2d160] | 0.114
TACACTTGTCGTAAGACACTTTGTGGGTTGA [3d722] | 0.115
TATCCTGTGTAAGACACTTTGGATGGGTTGA [3d952] | 0.791

(Q) API: value(readout=fraction ligated, system=F1*sub RNA substrate (template-directed ligation)) for record TATCACTTTCGTAAGACATTTGGATGGGTTA [3d1559]
(A) 0.778

(Q) Likewise for TATCCTTGTCGAAGACACTTTGGTGGGTTGA [3d1037] ?
(A) 0.181

(Q) Likewise for TTCACTTTGTAAGACACTTTGGATGGGTTGA [3d355] ?
(A) 0.747

(Q) Likewise for TATCACTTGCTAAGACACTTGGATGGGTTGA [3d1606] ?
(A) 0.782

(Q) Likewise for TATCACTTGTCGTAAGACCTTGGAGGGTTGA [3d2186] ?
(A) 0.0676

(Q) Likewise for TATCACGTCGTAAGACACTTTGGATGGGTTGA [2d128] ?
(A) 0.791

(Q) Likewise for ATACTTGTGTAAGACACTTTGGATGGGTTGA [3d51] ?
(A) 0.734

(Q) Likewise for TATCACTTGTCGTAAGACCTTGGATGGTTGA [3d2187] ?
(A) 0.127

(Q) Likewise for TACACTTGTCGAAGACACTTTGGATGGGTTA [3d657] ?
(A) 0.13

(Q) Likewise for TATCACTTGCGTAAGACACTTTGGATGGGTT [3d1703] ?
(A) 0.704

(Q) Likewise for TATCACTTGTCGTAAGCACTTGGTGGGTTGA [3d2130] ?
(A) 0.0887

(Q) Likewise for TATCCTTGTCTAAGACACTTTGGAGGGTTGA [3d1025] ?
(A) 0.0172

(Q) Likewise for TATCACTTGTCGAGACACTTTGGTGGGTTGA [3d1910] ?
(A) 0.0759

(Q) Likewise for ATCACTGTCGTAAGACACTTTGATGGGTTGA [3d118] ?
(A) 0.685

(Q) Likewise for TATACTTGTCGTAAGCATTTGGATGGGTTGA [3d895] ?
(A) 0.747

(Q) Likewise for TACACTGTCGTAAGACACTTGGATGGGTTGA [3d578] ?
(A) 0.394

(Q) Likewise for TATCACTTTCGTAAGCACTTTGGTGGGTTGA [3d1534] ?
(A) 0.0496

(Q) Likewise for TATCACTTGTCTAAGACACTTTGGAGGGTTG [3d1897] ?
(A) 0.0676

(Q) Likewise for TATCACTTGTCGTAGACCTTTGGATGGGTTG [3d2027] ?
(A) 0.777

---

test system: F1*sub RNA substrate (template-directed ligation); test: fraction ligated after 30 min (ligated reads / total reads); higher = more ligase activity; sequences stand for … in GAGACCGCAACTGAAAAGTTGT…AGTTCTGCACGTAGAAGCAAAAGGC; conditions: 42 °C
endpointLabel: fraction ligated
Give a plain numeric answer without units written out.

TATACTTGTTAAGACACTTTGGATGGGTTGA [3d828] | 0.793
TATCACTTGTCGTAACACTTTGGTGGGTTGA [3d1998] | 0.0145
TATCCTTGTCGTAGACACTTTGATGGGTTGA [3d1049] | 0.804
TAACTTGTCGTAAGCACTTTGGATGGGTTGA [3d517] | 0.142

(Q) Query (sequence): TATATTGTCGAAGACACTTTGGATGGGTTGA [3d763] ; field requested: fraction ligated
(A) 0.376

(Q) Likewise for TATCACTTGTCGTAAGACTTTGGTGGGTTGA [3d2109] ?
(A) 0.0656

(Q) Likewise for TATCCTTGTGTAAGCACTTTGGATGGGTTGA [3d1004] ?
(A) 0.788

(Q) Likewise for TTCACTTGTCGTAAGACATTTGGAGGGTTGA [3d480] ?
(A) 0.0169

(Q) Likewise for ATCACTTGTGTAAGACACTTGGATGGGTTGA [3d164] ?
(A) 0.719

(Q) Likewise for TATCCTTGTCGTAAGACACTTGGATGGGTTG [3d1103] ?
(A) 0.742

(Q) Likewise for TCACTTGTCGTAAGACACTTTGATGGGTTGA [3d18] ?
(A) 0.183

---

tested on: F1*sub RNA substrate (template-directed ligation); test: fraction ligated after 30 min (ligated reads / total reads); higher = more ligase activity; sequences stand for … in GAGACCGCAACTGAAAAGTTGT…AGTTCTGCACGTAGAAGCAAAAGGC; details: 42 °C
Each entry below carries its reported fraction ligated.
Give a plain numeric answer without units written out.

TACACTTGTCTAAGACACTTTGGTGGGTTGA [3d641] | 0.124
TAACTTGTCGTAAGACACTTTGGATGGGTTA [3d526] | 0.0297
TTCACTTGTCGTAAGAACTTTGGATGGGTTG [3d469] | 0.533

(Q) Query (sequence): TATCACTGTCGAAGAACTTTGGATGGGTTGA [3d1375] ; field requested: fraction ligated
(A) 0.846

(Q) Likewise for TATCCTTTCGTAAGAACTTTGGATGGGTTGA [3d974] ?
(A) 0.797

---

test system: F1*sub RNA substrate (template-directed ligation); assay: fraction ligated after 30 min (ligated reads / total reads); higher = more ligase activity; sequences stand for … in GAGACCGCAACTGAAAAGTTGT…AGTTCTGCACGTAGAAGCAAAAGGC; details: 42 °C
# binarize fraction ligated: threshold 0.07 inclusive, high side true (1), low side false (0)

Completed entries (count: 3):
TATACTTGTCGTAAGAACTTTGGTGGGTTGA [3d906] | false (0)
TATCACTGTGTAAGACACTTTGGTGGGTTGA [3d1353] | false (0)
TATCACTTGCGTAAGCACTTTGATGGGTTGA [3d1653] | true (1)

(Q) Hi team, for TATCCTTGTCGTAAACATTTGGATGGGTTGA [3d1057] , is the recorded fraction ligated at or above 0.07?
(A) true (1)

(Q) Likewise for TTCACTTGTCTAAGAACTTTGGATGGGTTGA [3d406] ?
(A) true (1)

(Q) Likewise for TATCACTTGTCGTAAGACACTTTGATGGGTT [3d2269] ?
(A) false (0)

(Q) Likewise for TATCATTGTGTAAGACACTTTGGATGGGTTG [3d1186] ?
(A) true (1)

(Q) Likewise for TATACTTGCGTAAGACATTTGGATGGGTTGA [3d820] ?
(A) true (1)

(Q) Likewise for TATCATTGCGTAAGACACTTTGGAGGGTTGA [3d1168] ?
(A) false (0)

(Q) Likewise for TATCCTTGTCGTAAGACATTTGGAGGGTTGA [3d1093] ?
(A) false (0)

(Q) Likewise for TATACTTGTCGTAAGACACTTTGGAGGTTGA [3d942] ?
(A) false (0)

(Q) Likewise for TATCATTGTCGTAAACACTTGGATGGGTTGA [3d1230] ?
(A) true (1)

(Q) Likewise for TATACTGTCGTAAGACCTTTGGATGGGTTGA [3d787] ?
(A) true (1)

(Q) Likewise for TATCACTTTCGTAAGACACTTTGGTGGTTGA [3d1575] ?
(A) false (0)

(Q) Likewise for TATCACTTGTCGTAAGACACTTTGGTGGGTTG [2d292] ?
(A) true (1)

(Q) Likewise for TATCTTGTCGTAAACACTTTGGATGGGTTGA [3d746] ?
(A) true (1)

(Q) Likewise for TATCACTTGTCGTAAGACACTTTATGGGTTA [3d2258] ?
(A) false (0)

(Q) Likewise for TTCACTTGTCGTAAGCACTTTGATGGGTTGA [3d456] ?
(A) true (1)

(Q) Likewise for TATCACTTGTCGAAACCTTTGGATGGGTTGA [3d1916] ?
(A) true (1)

---

test system: F1*sub RNA substrate (template-directed ligation); assay: fraction ligated after 30 min (ligated reads / total reads); higher = more ligase activity; sequences stand for … in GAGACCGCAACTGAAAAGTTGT…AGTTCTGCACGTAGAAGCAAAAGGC; details: 42 °C
# binarize fraction ligated: threshold 0.08 inclusive, high side 1.0, low side 0.0

Completed entries (count: 5):
TATATTGTCGTAAGACACTTTGGATGGGTTGA [2d70] | 1.0
TATCACTTTCGTAAGCACTTTGGATGGTTGA [3d1536] | 0.0
TATCACTGCGTAAACACTTTGGATGGGTTGA [3d1331] | 1.0
TATCACTTGTCGTAAGACATTTGGTGGGTTGA [2d271] | 0.0
TATCACTTGTCGTAAGACCTGGATGGGTTGA [3d2183] | 1.0

(Q) Hi team, for TACACTTGTGAAGACACTTTGGATGGGTTGA [3d618] , is the recorded fraction ligated at or above 0.08?
(A) 1.0

(Q) Likewise for TATCACTTGTCGTGACACTTTGGATGGGTTGA [2d221] ?
(A) 1.0

(Q) Likewise for TACCTTGTCGAAGACACTTTGGATGGGTTGA [3d533] ?
(A) 1.0

(Q) Likewise for ATCTTGTCGTAAGACACTTTGGATGGGTTGA [3d46] ?
(A) 1.0

(Q) Likewise for TATCACTTGTCGTAAGACACTGGAGGGTTGA [3d2234] ?
(A) 0.0

(Q) Likewise for TACATTGTCTAAGACACTTTGGATGGGTTGA [3d551] ?
(A) 0.0

(Q) Likewise for TATCACTTGTCTAAGAACTTTGATGGGTTGA [3d1858] ?
(A) 1.0

(Q) Likewise for TACACTTGTCGTAAGAACTTTGGATGGTTGA [3d697] ?
(A) 0.0

(Q) Likewise for TTCACTTTCGTAAGACACTTTGGATGGGTTGA [2d29] ?
(A) 1.0
